- subject-of-test: T1, human LAG3 expressed on cells (human, UniProt P18627 23-525)
- T1 sequence (looked up): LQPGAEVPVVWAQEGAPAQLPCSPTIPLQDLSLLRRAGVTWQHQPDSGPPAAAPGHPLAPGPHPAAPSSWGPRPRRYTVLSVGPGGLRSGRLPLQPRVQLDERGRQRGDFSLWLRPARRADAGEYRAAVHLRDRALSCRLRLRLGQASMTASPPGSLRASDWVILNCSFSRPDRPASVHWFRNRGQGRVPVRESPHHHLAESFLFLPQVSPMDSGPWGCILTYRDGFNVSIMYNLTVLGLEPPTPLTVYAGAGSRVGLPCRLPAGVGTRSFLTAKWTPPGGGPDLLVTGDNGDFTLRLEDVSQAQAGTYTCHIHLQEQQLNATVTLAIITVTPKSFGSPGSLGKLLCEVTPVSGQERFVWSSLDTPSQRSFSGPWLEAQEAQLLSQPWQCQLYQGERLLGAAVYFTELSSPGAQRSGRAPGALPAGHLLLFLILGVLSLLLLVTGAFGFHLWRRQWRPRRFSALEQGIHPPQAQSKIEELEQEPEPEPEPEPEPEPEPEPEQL
- protocol-text: cell-based or functional assay
Efficacy (IL-2 production, BMS = 100%) values for the binders below.
# number only, unit % dropped from output

Examples from the recorded data:
sdAb No. 27 (VHH, Fc of the tested form not described; also called sdAb 27; not shown: Fc part implied by anti-human Fc capture and anti-human IgG Fc detection) VHH: QVQLVESGGGLVQPGGSLRLSCAASGFTLDYYAIGWFRQAPGKEREGVSCIRSSDGSTYYADSVKGRFTISSDNTKNTVYLQMNSLKPEDTAVYYCATDRYSDCRGPYENWGQGTQVTVSS: 50.2
sdAb No. 20 (VHH, Fc of the tested form not described; also called sdAb 20; not shown: Fc part implied by anti-human Fc capture) VHH: QVQLVESGGGLVQPGGSLRLSCAASGLTLDGYAVGWFRQAPGKDREGLSCISGSDGSTHYLDSVKGRFTISRDNAKSTMALQMNSLQFGDTAIYYCAARRGSCSGSWTYWGQGTQVTVSS: 26.9

# input for lookup
Q: Quick one: Efficacy (IL-2 production, BMS = 100%) for sdAb No. 73 (VHH, Fc not described; also called sdAb 73; not shown: Fc part implied by anti-human Fc capture) VHH: QVQLVESGGGLVQPGGSLKLSCTASGFTLDYYAIAWFRQAPGKEREAVSCISSSDGSTRYADSVKGRFTISRDNAKNTVYLQMNSLKPEDTAVYYCAADPYGDCRGPYDYWGQGTQVTVSS ?
A: 56.4
